# studyTarget: canine CCK1 receptor (Canis lupus familiaris, UniProt Q5D0K2)
# Construct: expressed in transfected cells
# testSummary: competition binding of [125I]-BH-CCK-8S at cloned canine CCK1 receptor stably expressed in CHO-K cells
# assayContext: Canine CCK1, CHO-K cells; [125I]-BH-CCK-8S radiolabel; n = 3, ± s.e. mean
Entries and their nH (Hill slope) values follow.
Please give the numeric answer without any surrounding text.

// recorded nH (Hill slope) for CCCCCN(CCCOC)C(=O)[C@@H](CCC(=O)O)NC(=O)c1ccc(Cl)c(Cl)c1 [dexloxiglumide] : 0.83

For CNc1cccc(NC(=O)N[C@@H]2N=C(c3ccccn3)c3ccccc3N(CC(=O)C(C)(C)C)C2=O)c1 [YF476] the compound record lists nH (Hill slope) as 0.88

Noted for Cc1cccc(NC(=O)N[C@@H]2N=C(c3ccccc3)c3ccccc3N(CC(=O)c3ccccc3C)C2=O)c1 [YM022] : its nH (Hill slope) reads 1.09

// field: nH (Hill slope); key: Cc1cccc(NC(=O)N[C@@H]2N=C(c3ccccc3)c3ccccc3N(C)C2=O)c1 [L-365,260] ; value = 1.17

----------
Recorded nH (Hill slope) values for a group of molecules are listed next.
# studyTarget: Canine CCK1: Wild-type (Canis lupus familiaris, UniProt Q5D0K2)
# Construct: The ORF encodes a 428 amino-acid protein; expressed in transfected cells; host or cells: HEK-293 cells, transient
# testSummary: competition binding at wild-type canine CCK1 receptor transiently transfected in HEK cells
# assayContext: n = 3, ± s.e. mean
A bare number is all that is needed in reply.

Here are 3 molecules together with their reported answers.
Please fill in: nH (Hill slope) reported for Cc1cccc(NC(=O)N[C@@H]2N=C(c3ccccc3)c3ccccc3N(C)C2=O)c1 [L-365,260] = 0.96

Entry CCCCCN(CCCOC)C(=O)[C@@H](CCC(=O)O)NC(=O)c1ccc(Cl)c(Cl)c1 [dexloxiglumide] , nH (Hill slope) reported as 1.33

nH (Hill slope) recorded for this molecule, Cc1cccc(NC(=O)N[C@@H]2N=C(c3ccccc3)c3ccccc3N(CC(=O)c3ccccc3C)C2=O)c1 [YM022] , is 1.17

Pending molecule:
Consider CNc1cccc(NC(=O)N[C@@H]2N=C(c3ccccn3)c3ccccc3N(CC(=O)C(C)(C)C)C2=O)c1 [YF476] . Its measured nH (Hill slope) is 0.60

----------
Readings of Ki for the listed compounds
# studyTarget: Canine CCK1: Wild-type (Canis lupus familiaris, UniProt Q5D0K2)
# Construct: The ORF encodes a 428 amino-acid protein; expressed in transfected cells; host or cells: HEK-293 cells, transient
# Sequence (Q5D0K2 1-428): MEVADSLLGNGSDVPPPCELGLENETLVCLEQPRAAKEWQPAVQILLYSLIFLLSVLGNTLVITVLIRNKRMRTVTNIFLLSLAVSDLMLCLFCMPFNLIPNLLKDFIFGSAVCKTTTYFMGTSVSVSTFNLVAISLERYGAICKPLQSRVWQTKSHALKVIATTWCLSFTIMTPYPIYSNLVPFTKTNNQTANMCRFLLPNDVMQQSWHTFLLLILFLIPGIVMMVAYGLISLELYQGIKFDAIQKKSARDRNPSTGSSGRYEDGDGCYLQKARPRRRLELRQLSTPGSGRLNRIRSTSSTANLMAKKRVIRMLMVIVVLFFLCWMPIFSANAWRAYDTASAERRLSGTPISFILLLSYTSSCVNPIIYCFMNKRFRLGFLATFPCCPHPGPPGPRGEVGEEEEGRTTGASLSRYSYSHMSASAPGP
# testSummary: competition binding at wild-type canine CCK1 receptor transiently transfected in HEK cells
# assayContext: n = 3, ± s.e. mean, read-out: pKI (affinity value, -log equilibrium dissociation constant) (converted)
Express the result in nM but write the number alone.

These solved cases illustrate the format of a correct answer.
The recorded Ki for CCCCCN(CCCOC)C(=O)[C@@H](CCC(=O)O)NC(=O)c1ccc(Cl)c(Cl)c1 [dexloxiglumide] is 16.6

Kindly note the recorded Ki for CNc1cccc(NC(=O)N[C@@H]2N=C(c3ccccn3)c3ccccc3N(CC(=O)C(C)(C)C)C2=O)c1 , which is 12

Ki recorded for this compound, Cc1cccc(NC(=O)N[C@@H]2N=C(c3ccccc3)c3ccccc3N(C)C2=O)c1 , is 219

Now take the following compound into account.
The reported value for Cc1cccc(NC(=O)N[C@@H]2N=C(c3ccccc3)c3ccccc3N(CC(=O)c3ccccc3C)C2=O)c1 in terms of Ki is 11
